system: TZM-bl cell line; type: cell-based; settings: human, 1 μM
Exercise: state measured % Cell Viability for each of the molecules provided.
Give bare numbers, in %.

These recorded examples may help you get a feel for the data.
Chemical structure: Oc1c(CCc2ccc(Br)cc2)c(-c2ccc(C(F)(F)F)cn2)nn1-c1nc2ccccc2[nH]1
Target entity: TZM-bl cell line
Scale unit: %
% Cell Viability: 97.6
//
Chemical structure: CS(=O)(=O)c1cccc(-c2nn(-c3nc4cccnc4[nH]3)c(O)c2CCC2CCOCC2)c1
Target entity: TZM-bl cell line
Scale unit: %
% Cell Viability: 96.8
//
Chemical structure: O=C(OCc1ccccc1)N1CCC(c2nn(-c3nc4cccnc4[nH]3)c(O)c2CCc2ccc(F)cc2)CC1
Target entity: TZM-bl cell line
Scale unit: %
% Cell Viability: 95.7
//
Chemical structure: Oc1c(CCc2ccccn2)c(-c2ccc(C(F)(F)F)cn2)nn1-c1nc2ccccc2[nH]1
Target entity: TZM-bl cell line
Scale unit: %
% Cell Viability: 98.5

Q: Give the reported value of % Cell Viability for this record: CC(=O)N1CCC(CCc2c(-c3ccc(C(F)(F)F)cn3)nn(-c3nc4ccccc4[nH]3)c2O)CC1
Result: 98.3

###

Provide the reported RU30/RUNef (extent of binding) of each item.
biological target: HIV-1 NefNL4-3 (Human immunodeficiency virus type 1 group M subtype B, UniProt P03406, A33V/T15A/T51N/V11I); test: Surface plasmon resonance binding to recombinant full-length Nef (NL4-3); settings: response units at 30 μM relative to Nef immobilized on the SPR chip
Answers are plain numbers, in E- 02.

Compound: CC(C)(C)OC(=O)N1CCC(CCc2c(-c3ccc(S(C)(=O)=O)cc3)nn(-c3nc4cc(Cl)ccc4[nH]3)c2O)CC1 [Compound I-215]
Measured property: RU30/RUNef (extent of binding)
Reading: 1.00
--
Compound: O=C(c1ccoc1)N1CCC(c2nn(-c3nc4ccccc4[nH]3)c(O)c2CCc2ccc(F)cc2)CC1 [Compound I-737]
Measured property: RU30/RUNef (extent of binding)
Reading: 1.36
--
Compound: Oc1c(CCN2CCOCC2)c(-c2ccc(C(F)(F)F)cc2)nn1-c1nc2ccccc2[nH]1 [Compound I-131]
Measured property: RU30/RUNef (extent of binding)
Reading: 1.06

Take each entry in turn and give its RU30/RUNef (extent of binding).
1. CC(C)(O)C(=O)N1CCC(CCc2c(C3CC3)nn(-c3nc4cc(Cl)ccc4[nH]3)c2O)CC1 [Compound I-712]
2. CS(=O)(=O)c1ccc(-c2nn(-c3cc(C(F)(F)F)n[nH]3)c(O)c2CCc2ccc(F)cc2)cc1 [Compound I-603]
3. Oc1c(CCc2ccc(F)cc2)c(C2CCC2)nn1-c1nc2ccccc2[nH]1 [Compound I-129]

Result:
[1.07, 1.19, 1.28]

###

target: HIV-1 NefNL4-3 (Human immunodeficiency virus type 1 group M subtype B, UniProt P03406, A33V/T15A/T51N/V11I); test: Surface plasmon resonance binding to recombinant full-length Nef (NL4-3)
Record form. Attribute: pKd. Fill in for each entry.
Answers are plain numbers, as −log10 of the molar value.

A selection of reference data follows.
Compound: Oc1c(CCc2ccc(F)cc2)c(-c2ccccc2)nn1-c1nc2cc(Cl)ccc2[nH]1 [Compound I-165]
Reading: 6.16

Compound: CS(=O)(=O)c1cccc(-c2nn(-c3nc4cccnc4[nH]3)c(O)c2CCc2ccc(F)cc2)c1 [Compound I-311]
Reading: 6.00

Q: Respond only with pKd recorded for Cn1ccc(-c2nn(-c3nc4ccccc4[nH]3)c(O)c2CCc2ccc(F)cc2)cc1=O [Compound I-133]
Result: 6.11

###

target: HIV-1 NefNL4-3 (Human immunodeficiency virus type 1 group M subtype B, UniProt P03406, A33V/T15A/T51N/V11I); test: Surface plasmon resonance binding to recombinant full-length Nef (NL4-3); settings: Table 4; 2-step induced fit; T = 1/koff2
Kindly supply the reported T, minutes (residence time) values for the records listed here.

Consider the worked cases shown below.
Chemical structure: Oc1c(CCC2CCN(CC(F)(F)F)CC2)c(-c2ccc(C(F)(F)F)cc2)nn1-c1nc2ccccc2[nH]1
Measured property: T, minutes (residence time)
Reading: 1.80E + 04 minutes
//
Chemical structure: CC(C)(C)OC(=O)N1CCC(CCc2c(C3CC3)nn(-c3nc4cc(Cl)ccc4[nH]3)c2O)CC1
Measured property: T, minutes (residence time)
Reading: 1.02E + 01 minutes

Now look at this one.
Q: Hello, please tell me recorded T, minutes (residence time) for this one: Oc1c(CCc2ccc(F)cc2)c(-c2ccc(C(F)(F)F)nc2)nn1-c1nc2ccccc2[nH]1
Result: 1.47E + 03 minutes

###

test system: uninfected PBMCs; assay type: cell-based; conditions: human
Measured property: Toxicity in HIV Replication PBMC (Toxic @ concentration)

Chemical structure: Oc1c(CCc2ccc(F)cc2)c(-c2ccc(C(F)(F)F)cc2)nn1-c1nc2ccncc2[nH]1
Reading: Toxic @ 1 μM

Chemical structure: O=C(OCc1ccccc1)N1CCC(Cc2c(-c3ccc(C(F)(F)F)cc3)nn(-c3nc4ccccc4[nH]3)c2O)CC1
Reading: Toxic @ 1 μM

Chemical structure: Oc1c(CCc2ccc(F)cc2)c(-c2ccc(C(F)(F)F)cc2)nn1-c1nc2cccnc2[nH]1
Reading: Toxic @ 1 μM

###

target: HIV-1 NefNL4-3 (Human immunodeficiency virus type 1 group M subtype B, UniProt P03406, A33V/T15A/T51N/V11I); assay: Surface plasmon resonance binding to recombinant full-length Nef (NL4-3); details: Nef NL4-3 Binding, SPR 2-state fitting KD, Table 1; 2-step induced-fit model
Measured property: pKd
One number for each entry, as −log10 of the molar value.

Recorded pKd, per entry:
Chemical structure: CC(C)(C)OC(=O)NCc1nn(-c2nc3ccccc3[nH]2)c(O)c1CCc1ccc(F)cc1
Measured property: pKd
Reading: 5.63
//
Chemical structure: CC(=O)N1CCC(CCc2c(-c3ccc(C(F)(F)F)cc3)nn(-c3nc4ccccc4[nH]3)c2O)CC1
Measured property: pKd
Reading: 6.35
//
Chemical structure: CC(C)CS(=O)(=O)N1CCC(c2nn(-c3nc4ccccc4[nH]3)c(O)c2CCc2ccc(F)cc2)CC1
Measured property: pKd
Reading: 5.94
//
Chemical structure: CS(=O)(=O)c1ccc(-c2nn(-c3nc4ccccc4[nH]3)c(O)c2CCc2ccc(F)cc2)cc1
Measured property: pKd
Reading: 9.48
//
Chemical structure: Oc1c(CCc2ccc(F)cc2)c(CNCc2ccncc2)nn1-c1nc2ccccc2[nH]1
Measured property: pKd
Reading: 5.45

Would you be so kind as to report pKd for each listed record?
1. CC(C)OC(=O)N1CCC(c2nn(-c3nc4ccccc4[nH]3)c(O)c2CCC2CCOCC2)CC1
2. CC(C)OC(=O)N1CCC(c2nn(-c3nc4cc(Cl)ccc4[nH]3)c(O)c2CCC2CCOCC2)CC1
3. Oc1c(CCC2CCOCC2)c(-c2ccc(C(F)(F)F)cc2)nn1-c1nc2ccccc2[nH]1
4. CC(C)COC(=O)N1CCC(c2nn(-c3nc4ccccc4[nH]3)c(O)c2CCc2ccc(F)cc2)CC1

Result:
5.26
5.54
5.68
4.43

###

For each record, write down the corresponding Percent Viability @ 1 μM (TZM-bl cells).
system: TZM-bl cell line; format: cell-based; settings: human, 1 μM
Numbers only, in %.

Molecule: CN(C)S(=O)(=O)N1CCC(c2nn(-c3nc4ccccc4[nH]3)c(O)c2CCC2CCOCC2)CC1
Target entity: TZM-bl cell line
Measured property: Percent Viability @ 1 μM (TZM-bl cells)
Reading: 98.6

Provide each entry's Percent Viability @ 1 μM (TZM-bl cells) from the list below.
1. CC(C)(C)c1nn(-c2nc3ccccc3[nH]2)c(O)c1CCc1ccc(F)cc1
2. CC(C)(C)OC(=O)N1CCCCC1Cc1nn(-c2nc3ccccc3[nH]2)c(O)c1CCc1ccc(F)cc1 (centres unmarked)
3. O=C(C1CCOC1)N1CCC(c2nn(-c3nc4ccccc4[nH]3)c(O)c2CCc2ccc(F)cc2)CC1 (centres unmarked)
4. CS(=O)(=O)c1cccc(-c2nn(-c3nc4cccnc4[nH]3)c(O)c2CCc2ccc(F)cc2)c1

Result:
1: 98.7; 2: 99.3; 3: 96.0; 4: 94.5

###

test system: TZM-bl cell line; type: cell-based; details: human, 1 μM
Task for the reader: assign each of the following compounds its reported Percent Viability @ 1 μM (TZM-bl cells).
Give bare numbers, in %.

Chemical structure: CC(C)(C)OC(=O)N1CCC(c2nn(-c3nc4ccncc4[nH]3)c(O)c2CCc2ccc(F)cc2)CC1
Measured property: Percent Viability @ 1 μM (TZM-bl cells)
Scale unit: %
Reading: 103.1
--
Chemical structure: O=C(c1ccc(F)cc1)N1CCC(CCc2c(C3CC3)nn(-c3nc4cc(Cl)ccc4[nH]3)c2O)CC1
Measured property: Percent Viability @ 1 μM (TZM-bl cells)
Scale unit: %
Reading: 106.9
--
Chemical structure: CC(C)(C)OC(=O)N1CCN(Cc2nn(-c3nc4ccccc4[nH]3)c(O)c2CCc2ccc(F)cc2)CC1
Measured property: Percent Viability @ 1 μM (TZM-bl cells)
Scale unit: %
Reading: 103.5

Q: Report Percent Viability @ 1 μM (TZM-bl cells) from TZM-bl cell line testing of CC(C)OC(=O)N1CCC(CCc2c(-c3ccc(Br)cn3)nn(-c3nc4ccccc4[nH]3)c2O)CC1
Result: 104.1
